The origin of these recorded values is patent US20100222280A1.

study.system: TGF-β1 (Roche)
Sequence (P01137 279-390): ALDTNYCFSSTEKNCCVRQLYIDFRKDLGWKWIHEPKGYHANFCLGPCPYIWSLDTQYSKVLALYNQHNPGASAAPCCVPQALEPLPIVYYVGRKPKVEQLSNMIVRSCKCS
experiment.description: cell-based or functional assay
experimental.endpoint: % Inhibition (Mv-1-Lu cell line growth reestablishment, 3H-thymidine) (%)

{"columns": ["binder", "reported.measurement"],
 "data": [
  ["RLHGHRSHRFTHVAQ (15-aa peptide) [peptide identified by SEQ ID NO: 16]", 9.47],
  ["RRFHFHSRMVAVDNS (15-aa peptide) [peptide identified by SEQ ID NO: 20]", 6.16],
  ["RHLSHFKWLRSHGLD (15-aa peptide) [peptide identified by SEQ ID NO: 19]", 9.71],
  ["KRIWFIPRSSWYERA (15-aa peptide) [TGF-β1 inhibitor peptide P17 (SEQ ID NO: 17)]", 38.9],
  ["RLAHSHRHRSHVALT (15-aa peptide) [peptide identified by SEQ ID NO: 4]", 5.53],
  ["MPLSRYWWLFSHRPR (15-aa peptide) [peptide identified by SEQ ID NO: 18]", 21.3],
  ["HRISHFAHRYLARLH (15-aa peptide) [peptide identified by SEQ ID NO: 7]", -25],
  ["RKWFLQHRRMPVSVL (15-aa peptide) [peptide identified by SEQ ID NO: 13]", 18],
  ["WHKYFLRRPLSVRTR (15-aa peptide) [peptide identified by SEQ ID NO: 11]", 27.4]
]}
